Here, each record is paired with measured CC50 data.
test: The compound was tested for cytotoxic activity against KB cell line by clonogenic cell survival assay.; format: cell-based; conditions: human, KB cells; read-out: LD50 (the source's name)

* COc1cc([N+](=O)[O-])ccc1N[C@@H]1c2cc3c(cc2[C@@H](c2cc(OC)c(O)c(OC)c2)[C@H]2C(=O)OC[C@@H]21)OCO3 | > 20 µM
* COc1ccc([N+](=O)[O-])cc1N[C@@H]1c2cc3c(cc2[C@@H](c2cc(OC)c(O)c(OC)c2)[C@H]2C(=O)OC[C@@H]21)OCO3 | > 20 µM

We next turn to a different compound, shown below.
Recorded CC50 (compound COc1ccc(N[C@@H]2c3cc4c(cc3[C@@H](c3cc(OC)c(O)c(OC)c3)[C@H]3C(=O)OC[C@@H]32)OCO4)c([N+](=O)[O-])c1 ): > 20 µM
